# experimental system: D(4) dopamine receptor (Homo sapiens)
# Sequence (P21917 whole entry): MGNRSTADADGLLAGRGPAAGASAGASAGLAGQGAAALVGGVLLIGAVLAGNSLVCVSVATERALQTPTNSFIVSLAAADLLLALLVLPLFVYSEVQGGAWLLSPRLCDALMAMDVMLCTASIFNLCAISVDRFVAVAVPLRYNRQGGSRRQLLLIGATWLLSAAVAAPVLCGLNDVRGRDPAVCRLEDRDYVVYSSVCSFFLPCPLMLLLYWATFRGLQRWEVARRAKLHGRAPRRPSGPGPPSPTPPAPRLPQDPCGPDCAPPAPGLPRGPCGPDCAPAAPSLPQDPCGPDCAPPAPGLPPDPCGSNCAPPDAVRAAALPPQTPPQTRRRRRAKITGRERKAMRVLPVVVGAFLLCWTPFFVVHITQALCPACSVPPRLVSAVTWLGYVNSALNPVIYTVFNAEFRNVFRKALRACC
# setup conditions: cho-k1
# Description: Binding towards dopamine receptor D4 expressed in CHO-K1 cells using [3H]spiperone
metric name: Ki

Reported Ki ( CCCN1CCCC(c2cccc(C#N)c2)C1 (single isomer, unassigned; (-)) ) = > 933 nM

====

# Species on record: Rattus norvegicus
# experiment notes: Evaluated for rat locomotor activity in nonpretreated habituated rats at 100 umol / kg
# Type: functional
# Design: unit not given beside the values
metric name: Activity
// no unit string in output, number only

Just so you know, measured Activity for CCCN1CCCC(c2cccc(O)c2)C1 (single isomer, unassigned; (-)) came out at 208

Input CCCN[C@@H]1CCc2c(OC)cccc2[C@@H]1C . Output Activity: 350

Looking up CCCN1CCCC(c2cccc(C#N)c2)C1 (single isomer, unassigned; (+)) , I see its Activity listed as 559

Looking up CCCN1CCCC(c2cccc(C#N)c2)C1 (single isomer, unassigned; (-)) , I see its Activity listed as 719

Sure, the documented Activity for CCCN(CCC)[C@@H]1CCc2c(OC)cccc2[C@@H]1C is 220

====

Assignment: determine reported Activity for the given molecules.
# Tested on: Rattus norvegicus
# experiment notes: Evaluated in rat accumbens for the effect on dopamine release and metabolism in brain dialysis model after administration of 50 umol / kg subcutaneously
# Assay type: functional
No unit in the answer, only the number.

Activity reading for CCCN1CCCC(c2cccc(C#N)c2)C1 (single isomer, unassigned; (-)) : 294

Noted for CCCN(CCC)[C@@H]1CCc2c(OC)cccc2[C@@H]1C : its Activity reads 231

For this molecule ( CCCN[C@@H]1CCc2c(OC)cccc2[C@@H]1C ), measured Activity is 313

Activity reading for CCCN1CCCC(c2cccc(O)c2)C1 (single isomer, unassigned; (-)) : 98

Activity for CCCN1CCC[C@@H](c2cccc(OS(=O)(=O)C(F)(F)F)c2)C1 is 153

====

# experimental system: D(2) dopamine receptor (Rattus norvegicus)
# Sequence (P61169 whole entry): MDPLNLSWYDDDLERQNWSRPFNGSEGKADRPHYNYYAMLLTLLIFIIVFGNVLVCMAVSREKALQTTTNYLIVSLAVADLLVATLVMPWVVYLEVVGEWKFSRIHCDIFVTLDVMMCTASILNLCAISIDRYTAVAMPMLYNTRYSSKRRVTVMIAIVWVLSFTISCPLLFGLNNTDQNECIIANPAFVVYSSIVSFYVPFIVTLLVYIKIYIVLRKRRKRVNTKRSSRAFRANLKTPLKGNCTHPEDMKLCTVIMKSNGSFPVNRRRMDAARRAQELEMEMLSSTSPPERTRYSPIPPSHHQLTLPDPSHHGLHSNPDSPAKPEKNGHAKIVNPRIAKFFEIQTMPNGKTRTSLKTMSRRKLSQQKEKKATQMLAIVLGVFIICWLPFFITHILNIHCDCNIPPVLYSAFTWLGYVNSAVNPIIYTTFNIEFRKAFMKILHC
# experiment notes: Binding towards Dopamine receptor D2 using [3H]spiperone from rat striatal membrane
metric name: pKi
API: returns pKi as number; meaning -log10 of concentration in mol/L.

Param item: CCCN1CCCC(c2cccc(C#N)c2)C1 (single isomer, unassigned; (+)) ; param system: D(2) dopamine receptor (Rattus norvegicus); output pKi: 4.90

# pKi measured on D(2) dopamine receptor (Rattus norvegicus) for item CCCN1CCCC(c2cccc(C#N)c2)C1 (single isomer, unassigned; (-)) = 5.94

Lab note: compound CCCN[C@@H]1CCc2c(OC)cccc2[C@@H]1C tested on D(2) dopamine receptor (Rattus norvegicus); recorded pKi was 6.28

Observed pKi on D(2) dopamine receptor (Rattus norvegicus), entry CCCN(CCC)[C@@H]1CCc2c(OC)cccc2[C@@H]1C , equals 7.15
